Data provenance is PubChem BioAssay (NCI).

# Tested on: NCI-H522 lung
# measurement.protocol: NCI tumour cell line growth inhibition, 48 h; in the data active means GI50 below about 0.43 µM; inactive means the rest
Your reply should match one of these outcome classes. active, inactive

The examples below pair each entry with its known result.
{"molecular.string": "COC1=CC(=O)c2nc(-c3ccncc3)[nH]c2C1=O", "assayed.system": "NCI-H522 lung", "group.label": "inactive"}
{"molecular.string": "CCCCCN(CCCCC)CCCNc1c2c(nc3ccc(Cl)cc13)CCCC2", "assayed.system": "NCI-H522 lung", "group.label": "inactive"}

stdin: Outcome? Cc1cc(I)cc(CN(C)CCCCN2CCCCC2)c1O
stdout: inactive

stdin: Outcome? COC1=CC(c2ccc[nH]2)=N/C1=C\c1[nH]c(C)c(C(=O)OC(C)C)c1C
stdout: active
